Target: His6-ERα298-554 Y537S mutant (ERα ligand-binding domain) (Homo sapiens (Human), UniProt P03372, Y537S)
Sequence (P03372 298-554 Y537S): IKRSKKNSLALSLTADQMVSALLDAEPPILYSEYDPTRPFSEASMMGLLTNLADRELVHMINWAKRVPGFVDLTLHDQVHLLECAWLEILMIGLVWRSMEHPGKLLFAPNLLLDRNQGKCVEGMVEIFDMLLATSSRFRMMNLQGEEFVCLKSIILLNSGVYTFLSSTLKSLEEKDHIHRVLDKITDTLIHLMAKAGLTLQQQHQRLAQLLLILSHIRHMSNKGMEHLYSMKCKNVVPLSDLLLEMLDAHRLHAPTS
Assay: Test A: biochemical antagonist activity, LanthaScreen TR-FRET ERα coactivator assay, Y537S mutant
Settings: asterisk (*): protocol using 10 nM estradiol; read-out: Antagonism Y537S IC50
pIC50: −log10 of the molar value.
Rule: True for pIC50 not less than 7, False for anything less.

// query In plain terms: is recorded pIC50 at least 7 for Oc1ccc2c(c1)OCC(c1ccc(F)cc1Cl)=C2c1ccc(O[C@H]2CCN(CCCF)C2)cc1 [Example 82] ?
// result False

// query hey, is pIC50 for this one >= 7? Oc1ccc2c(c1)C(c1ccc(O[C@H]3CCN(CCCF)C3)cc1)=C(c1ccc(OC(F)(F)F)cc1Cl)CC2 [Example 7]
// result False

// query For this compound, is measured pIC50 7 or higher? Oc1ccc2c(c1)CCCC(c1ccc(OC(F)(F)F)cc1)=C2c1ccc(N[C@H]2CCN(CCCF)C2)cc1 [Example 87]
// result False

// query Given the entry COc1c(C(=O)O)cccc1C1=C(c2ccc(O[C@H]3CCN(CCCF)C3)cc2)c2ccc(O)cc2OCC1 [Example 148] , answer whether its pIC50 meets or surpasses 7.
// result False

// query Please check the record [O-][S+]1CCC(c2ccc(OC(F)(F)F)cc2)=C(c2ccc(O[C@H]3CCN(CCCF)C3)cc2)c2ccc(O)cc21 (stereo partly drawn) [Example 225] and state if its pIC50 is at or above 7.
// result False

// query Tell me whether pIC50 is at least 7 here: Oc1ccc2c(c1)SCC(c1ccc(OC3COC3)cc1)=C2c1ccc(O[C@H]2CCN(CCCF)C2)cc1 [Example 44]
// result False

// query Does the reported pIC50 for Cc1ccc(C2=C(c3ccc(O[C@H]4CCN(CCCF)C4)cc3)c3ccc(OP(=O)(O)O)cc3SC2)c(F)c1 [Example 48] fall at or above the 7 mark?
// result False

// query Is reported pIC50 greater than or equal to 7 here: Oc1ccc2c(c1)SCC(c1ccc(Cl)nc1F)=C2c1ccc(O[C@H]2CCN(CCCF)C2)cc1 [Example 55]
// result False

// query Determine whether measured pIC50 meets or exceeds 7 for C[C@@H]1Cc2cc(C3=C(c4ccc(O[C@H]5CCN(CCCF)C5)cc4)c4ccc(O)cc4SCC3)ccc2O1 [Example 202]
// result True

// query Threshold query (pIC50 >= 7) on COc1ccc(C2=C(c3ccc(O[C@H]4CCN(CCCF)C4)cc3)c3ccc(O)cc3OCC2)c(Cl)c1 [Example 154]
// result True

// query Given the entry CC(C)(C)OC(=O)Nc1ccc(C2=C(c3ccc(O[C@H]4CCN(CCCF)C4)cc3)c3ccc(O)cc3SC2)c(F)n1 [Example 65] , answer whether its pIC50 meets or surpasses 7.
// result False

// query Decide: pIC50 of CCOc1ccc(C2=C(c3ccc(O[C@H]4CCN(CCCF)C4)cc3)c3ccc(O)cc3SCC2)c(C)c1 [Example 186] >= 7?
// result True

----------
Target: His6-ERα298-554 WT (ERα ligand-binding domain) (Homo sapiens (Human))
Sequence (P03372 298-554): as the sequence (P03372 298-554 Y537S) above, with S240Y counted along it
Test: Test A: biochemical antagonist activity, LanthaScreen TR-FRET ERα coactivator assay, WT
Settings: asterisk (*): protocol using 10 nM estradiol; read-out: Antagonism WT IC50
// returns 0 (no) unless IC50 is strictly below 10 nM, in which case 1 (yes)

// query Is IC50 strictly under 10 nM for the entry CCOc1ccc(C2=C(c3ccc(O[C@H]4CCN(CCCF)C4)cc3)c3ccc(O)cc3SCC2)c(F)c1Cl ?
// result 0 (no)

// query Strictly below 10 nM: is that where IC50 of CCOc1nccc(C2=C(c3ccc(O[C@H]4CCN(CCCF)C4)cc3)c3ccc(O)cc3SC2)c1F sits?
// result 0 (no)

// query Consider Oc1ccc2c(c1)SCCC(c1ccc(F)nc1F)=C2c1ccc(O[C@H]2CCN(CCCF)C2)cc1 . Does its IC50 lie strictly below 10 nM?
// result 1 (yes)

// query Lab log: compare recorded IC50 with 10 nM; is it strictly lower for O=C(O)c1ccc2c(c1)CCCC(c1ccc(OC(F)F)c(F)c1)=C2c1ccc(O[C@H]2CCN(CCCF)C2)nc1 ?
// result 0 (no)

// query Given the entry Oc1ccc2c(c1)CCCC(c1ccc(OC(F)F)c(F)c1)=C2c1ccc(O[C@H]2CCN(CCCF)C2)nc1 , would its reported IC50 be below 10 nM?
// result 1 (yes)

// query Does this compound meet the criterion IC50 < 10 nM? CCOc1ccc(C2=C(c3ccc(O[C@H]4CCN(CCCF)C4)cc3)c3ccc(O)cc3OCC2)c(F)c1
// result 1 (yes)

// query A record lists Cc1ccc(C2=C(c3ccc(O[C@H]4CCN(CCCF)C4)nc3)c3ccc(O)cc3CCC2)c(F)c1 . Is its IC50 below 10 nM?
// result 1 (yes)

// query Lab log: compare recorded IC50 with 10 nM; is it strictly lower for Oc1ccc2c(c1)SCCC(c1ccc(SC(F)(F)F)cc1)=C2c1ccc(O[C@H]2CCN(CCCF)C2)cc1 ?
// result 0 (no)

// query Consider the compound CC(C)(C)OC(=O)N1CCOc2ccc(C3=C(c4ccc(O[C@H]5CCN(CCCF)C5)cc4)c4ccc(O)cc4SC3)cc21 . Is its IC50 strictly less than 10 nM?
// result 0 (no)

// query Dear colleague, could you confirm whether IC50 of COCCOc1ccc(C2=C(c3ccc(O[C@H]4CCN(CCCF)C4)cc3)c3ccc(O)cc3OCC2)cc1 falls below 10 nM? Thanks.
// result 0 (no)

// query IC50 under 10 nM? Item: COc1ccc(C2=C(c3ccc(O[C@H]4CCN(CCCF)C4)cc3)c3ccc(O)cc3SC2)c(F)c1
// result 1 (yes)

// query hey, is IC50 for Oc1ccc2c(c1)SCCC(c1ccc(OC(F)(F)F)cc1)=C2c1ccc(O[C@H]2CCN(CCCF)C2)cc1 lower than 10 nM or not?
// result 0 (no)

// query Answer whether the compound Oc1ccc2c(c1)C(c1ccc(O[C@H]3CCN(CCCF)C3)cc1)=C(c1ccc(OC(F)(F)F)cc1Cl)CC2 has IC50 strictly less than 10 nM
// result 0 (no)

// query Consider CCOc1ccc(C2=C(c3ccc(O[C@H]4CCN(CCCF)C4)cc3)c3ccc(O)cc3SC2)c(F)c1F . Does its IC50 lie strictly below 10 nM?
// result 0 (no)

// query I'd appreciate it if you could check whether CCN(CC)c1ccc(C2=C(c3ccc(O[C@H]4CCN(CCCF)C4)cc3)c3ccc(O)cc3SCC2)c(F)c1 has IC50 smaller than 10 nM.
// result 0 (no)
